Hey, just so you know, these numbers are from patent US9481669B2.

Test: Mouse pharmacokinetic (PK) study
Format: in vivo, CD-1 mice
Details: mouse, plasma; CD-1 mice, 12 mg/kg PO
Property name: bioavailability (%)
Quick reminder: number only, in %, skip the unit.

Look at this molecule and give its reported bioavailability. C/C(=C\C=C\[C@@H](C)c1ccccn1)[C@H]1OC(=O)C[C@H](O)CC[C@@](C)(O)[C@@H](OC(=O)N2CCN(C3CCCCCC3)CC2)/C=C/[C@@H]1C [Compound 1]
52.1

---

Assay: Mouse pharmacokinetic (PK) study
Assay type: in vivo, CD-1 mice
Settings: mouse, plasma; CD-1 mice, 5 mg/kg IV (Table 5)
Property name: half-life (h)
Quick reminder: number only, in h, skip the unit.

Look at this molecule and give its reported half-life. C/C(=C\C=C\[C@@H](C)c1ccccn1)[C@H]1OC(=O)C[C@H](O)CC[C@@](C)(O)[C@@H](OC(=O)N2CCN(C3CCCCCC3)CC2)/C=C/[C@@H]1C
2.54

---

Experiment: Mouse pharmacokinetic (PK) study
Format: in vivo, CD-1 mice
Details: mouse, plasma; CD-1 mice, 5 mg/kg IV (Table 5); read-out: Vss
Property name: Vd

Look at this compound and give its reported Vd. C/C(=C\C=C\[C@@H](C)c1ccccn1)[C@H]1OC(=O)C[C@H](O)CC[C@@](C)(O)[C@@H](OC(=O)N2CCN(C3CCCCCC3)CC2)/C=C/[C@@H]1C [Compound 1]
2.1 L/kg

---

Test: pH stability measurement (UPLC, 0.1 N HCl)
Format: physicochemical
Settings: 0.1 N HCl, pH 1, 24 hours
Examples of compounds with documented % parent remaining (pH = 1, 24 hours) follow.
Quick reminder: number only, in %, skip the unit.

Look at this compound and give its reported % parent remaining (pH = 1, 24 hours). C/C(=C\C=C\[C@@H](C)c1ccccn1)[C@H]1OC(=O)C[C@H](O)CC[C@@](C)(O)[C@@H](OC(=O)N2CCC(N3CCCCCC3)CC2)/C=C/[C@@H]1C
98

---

Test: Mouse pharmacokinetic (PK) study
Type: in vivo, CD-1 mice
Conditions: mouse, plasma; CD-1 mice, 5 mg/kg IV
Experimental: Compound 2 was dosed at 5 mg/kg IV (intravenous) or 10 mg/kg PO (oral administration) to CD-1 mice. Following administration, blood samples were collected at pre-determined time points from five mice via serial bleeding of the tail vein. […] PK parameters were calculated using non-compartmental analysis in WinNonlin v6.3. Compound 1 was dosed at 5 mg/kg IV or 12 mg/kg PO to CD-1 mice. […] PK parameters were calculated using non-compartmental analysis in WinNonlin v6.3. […]
Property name: AUC(0-t) (ng·h/mL)
Quick reminder: number only, in ng·h/mL, skip the unit.

Look at this compound and give its reported AUC(0-t). C/C(=C\C=C\[C@@H](C)c1ccccn1)[C@H]1OC(=O)C[C@H](O)CC[C@@](C)(O)[C@@H](OC(=O)N2CCN(C)CC2)/C=C/[C@@H]1C
3160

---

Experiment: Mouse pharmacokinetic (PK) study
Format: in vivo, CD-1 mice
Settings: mouse, plasma; CD-1 mice, 5 mg/kg IV (Table 5)
Property name: AUC(0-inf) (ng·h/mL)
Quick reminder: number only, in ng·h/mL, skip the unit.

Look at this molecule and give its reported AUC(0-inf). C/C(=C\C=C\[C@@H](C)c1ccccn1)[C@H]1OC(=O)C[C@H](O)CC[C@@](C)(O)[C@@H](OC(=O)N2CCN(C3CCCCCC3)CC2)/C=C/[C@@H]1C
4670
